Reference for the values: patent US20230276836A1

Below: a set of entries, each annotated with reported RI.
# assay: Reactivity index (RI) between compound and carrageenan, viscosity change (Test Examples 2, 10)
# Type: physicochemical
# measurement parameters: Test Example 10; uncoated compound, 10 ppm in 1 mass% carrageenan; spermidine dissolved in purified water

A selection of reference data follows.
# compound, RI
measured = [
    ("NCCCCNCCCN [Comparative Example 15, Spermidine]", 1.5),
    ("O=C(O[C@@H]1Cc2c(O)cc(O)cc2O[C@@H]1c1cc(O)c(O)c(O)c1)c1cc(O)c(O)c(O)c1 [Comparative Example 12, Epigallocatechin Gallate]", 4.4),
    ("COc1cc(/C=C/CO)cc(OC)c1O[C@@H]1O[C@H](CO)[C@@H](O)[C@H](O)[C@H]1O [Comparative Example 13, Syringin]", 2.3),
]

Lab note: COc1cc([C@H]2OC[C@@H]3[C@@H]2CO[C@H]3c2cc(OC)c(O[C@@H]3O[C@H](CO)[C@@H](O)[C@H](O)[C@H]3O)c(OC)c2)cc(OC)c1O[C@@H]1O[C@H](CO)[C@@H](O)[C@H](O)[C@H]1O [Comparative Example 14, Eleutheroside E] gave RI of 2.1
